target: recombinant human MMP-3 (Homo sapiens, UniProt P08254); construct: purchased R&D Systems; experiment: MMP-3 enzyme assay (FRET substrate), selectivity versus MMP-12; type: biochemical; conditions: fold difference in Ki for MMP-3 compared to MMP-12
Sequence (P08254 100-477): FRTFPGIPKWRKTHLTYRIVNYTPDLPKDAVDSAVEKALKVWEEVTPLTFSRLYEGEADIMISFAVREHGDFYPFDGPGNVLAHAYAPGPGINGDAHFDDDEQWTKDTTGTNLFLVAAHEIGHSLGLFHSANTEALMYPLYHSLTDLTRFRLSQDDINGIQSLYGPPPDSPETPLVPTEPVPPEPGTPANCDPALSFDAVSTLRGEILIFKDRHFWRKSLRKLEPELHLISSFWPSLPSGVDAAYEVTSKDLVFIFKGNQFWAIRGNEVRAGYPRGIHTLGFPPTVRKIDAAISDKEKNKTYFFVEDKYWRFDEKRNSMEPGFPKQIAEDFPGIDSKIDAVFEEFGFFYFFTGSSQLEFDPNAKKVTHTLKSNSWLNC
Answer each item with its documented Ki(MMP-3)/Ki(MMP-12).
Give bare numbers.

Consider the following illustrative entries.
Compound: CC(C)[C@H](C(=O)NO)N1C(=O)N[C@@H](CCc2ccccc2)C1=O [Example 1]
Target Entity: recombinant human MMP-3 (Homo sapiens, UniProt P08254)
Reported: 140

Compound: CC(C)(C)[C@H](C(=O)NO)N1C(=O)N[C@@H](CCc2ccccc2)C1=O [Example 12]
Target Entity: recombinant human MMP-3 (Homo sapiens, UniProt P08254)
Reported: 122

Compound: CC(C)[C@H](C(=O)NO)N1C(=O)N[C@H](CCc2ccccc2)C1=O [Example 7]
Target Entity: recombinant human MMP-3 (Homo sapiens, UniProt P08254)
Reported: 53

Compound: CC(C)[C@H](C(=O)NO)N1C(=O)N[C@@H](CCc2ccc(-c3ccccc3)cc2)C1=O (stereo in doubt) [Example 5]
Target Entity: recombinant human MMP-3 (Homo sapiens, UniProt P08254)
Reported: 71

For every listed record, write down its Ki(MMP-3)/Ki(MMP-12).
1. O=C(NO)[C@@H](Cc1ccccc1)N1C(=O)N[C@@H](CCc2ccccc2)C1=O [Example 10]
2. CC(C)[C@H](C(=O)NO)N1C(=O)N[C@@H](COCc2cccc(F)c2)C1=O [Example 15]

1: 34; 2: 120

---

Answer each item with its documented Ki(MMP-3)/Ki(MMP-12).
molecular target: recombinant human MMP-3 (Homo sapiens); construct: purchased R&D Systems; test: MMP-3 enzyme assay (FRET substrate), selectivity versus MMP-12; assay type: biochemical; conditions: fold difference in Ki for MMP-3 compared to MMP-12
Numbers only.

Consider the following illustrative entries.
Compound: Cc1ccc(CCC2NC(=O)N(C(C(=O)NO)C(C)C)C2=O)cc1 (stereo not shown)
Ki(MMP-3)/Ki(MMP-12): 75

Compound: CC(C)[C@H](C(=O)NO)N1C(=O)N[C@@H](CCc2ccccc2F)C1=O
Ki(MMP-3)/Ki(MMP-12): 240

Okay, now this compound:
Fill blank: measured Ki(MMP-3)/Ki(MMP-12) of the compound "CC(C)[C@H](C(=O)NO)N1C(=O)N[C@@H](CCc2ccc(F)cc2)C1=O" is ____. 150

---

target: recombinant human TACE (Homo sapiens, UniProt P78536); construct: purchased R&D Systems; test: TACE enzyme assay (FRET substrate), selectivity versus MMP-12; assay type: biochemical; conditions: fold difference in Ki for TACE compared to MMP-12
Sequence (P78536 215-824): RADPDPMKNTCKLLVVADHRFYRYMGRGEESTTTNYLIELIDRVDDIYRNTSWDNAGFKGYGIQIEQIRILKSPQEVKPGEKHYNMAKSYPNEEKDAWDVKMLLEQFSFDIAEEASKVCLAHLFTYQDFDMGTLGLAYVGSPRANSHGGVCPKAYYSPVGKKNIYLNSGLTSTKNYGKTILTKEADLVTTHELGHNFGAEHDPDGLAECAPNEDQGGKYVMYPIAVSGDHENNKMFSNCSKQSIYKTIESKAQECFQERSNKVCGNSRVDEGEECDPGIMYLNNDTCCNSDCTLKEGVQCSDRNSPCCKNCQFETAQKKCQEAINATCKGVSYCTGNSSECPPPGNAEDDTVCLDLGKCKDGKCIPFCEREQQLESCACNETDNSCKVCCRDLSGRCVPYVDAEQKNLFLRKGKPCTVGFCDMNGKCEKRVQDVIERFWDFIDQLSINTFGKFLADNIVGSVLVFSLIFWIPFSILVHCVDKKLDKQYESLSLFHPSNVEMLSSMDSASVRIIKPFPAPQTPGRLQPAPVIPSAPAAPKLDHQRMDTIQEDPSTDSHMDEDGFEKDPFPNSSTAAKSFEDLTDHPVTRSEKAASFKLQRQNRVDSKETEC
Reported Property: Ki(TACE)/Ki(MMP-12)

For every listed record, write down its Ki(TACE)/Ki(MMP-12).
1. O=C(NO)[C@@H](Cc1ccccc1)N1C(=O)N[C@@H](CCc2ccccc2)C1=O [Example 10]
2. CC(C)[C@H](C(=O)NO)N1C(=O)N[C@@H](CCc2ccc(-c3ccccc3)cc2)C1=O (stereo in doubt) [Example 5]
3. CC(C)[C@H](C(=O)NO)N1C(=O)N[C@@H](COCc2cccc(F)c2)C1=O [Example 15]
4. CC(C)[C@H](C(=O)NO)N1C(=O)N[C@@H](CCc2ccccc2F)C1=O [Example 36]

1: >150; 2: >4500; 3: >700; 4: 280
